Each entry below carries its recorded composite z-score.
# Tested on: Human papillomavirus type 1a E7 protein (residues 1-88)
# assay protocol: HPV1a E7 small-molecule binders, primary screen, biochemical, small-molecule microarray, residues 1-88, 635 nm (AID 1129)
# experimental setup: small-molecule microarray binding, fluorescence 635 nm; higher = more signal
observable: composite z-score

[[record]]
compound = "C=CCC(OC(C)=O)[C@@H]1[C@@H](N(Cc2cc3ccccc3o2)C(=O)c2ccc(-c3ccccc3)cc2)c2cc(OCCCO)ccc2N1C(=O)c1ccc2ccccc2c1 (stereo not given in full)"
observable = "composite z-score"
obs_value = 0.0833

[[record]]
compound = "COC(=O)[C@@]1(Cc2ccc(OC)cc2)[C@H]2c3cc(C(=O)N(C)C)n(C[C@H](O)CO)c3C[C@H]2CN1C(=O)c1ccccc1"
observable = "composite z-score"
obs_value = 1.2

[[record]]
compound = "[N-]=[N+]=NCc1ccccc1[C@H]1OC(c2ccc(OCCCO)cc2)=N[C@@]1(CCS(=O)(=O)c1ccccc1)C(=O)NCC(O)CO (stereo not given in full)"
observable = "composite z-score"
obs_value = 1.26

[[record]]
compound = "C=CCOC(=O)[C@H]1[C@@H]2C(=O)O[C@@H](c3ccccc3)[C@@H](c3ccccc3)N2[C@@H](c2ccc(OCCOC(=O)[C@@H]3C[C@@H]4C(=O)N5CCC[C@H]5C(=O)N4[C@@H]3c3ccc(O)cc3)cc2)[C@]12C(=O)Nc1ccc(I)cc12"
observable = "composite z-score"
obs_value = 0.246

[[record]]
compound = "COCCOC(=O)N1C(=O)[C@@]2(c3cc(C#CCCO)ccc31)[C@H](c1ccccc1OCCO)N1[C@H](c3ccccc3)[C@H](c3ccccc3)OC(=O)[C@H]1[C@@H]2C(=O)Nc1nc2ccccc2s1"
observable = "composite z-score"
obs_value = 1.2


---

Parameter z-score: see the listing below.
# assay protocol: inhibitors of hydroxyurea-induced Chk1 phosphorylation, primary screen, imaging, HeLa, phospho-Chk1 nuclear intensity (AID 1187); further: test concentration not given here
# experimental setup: hydroxyurea-induced phospho-Chk1 immunofluorescence imaging, higher = more signal
observable: z-score

[[record]]
smiles_data = "C=C(C)c1cc2c(c(CCCCCC)n1)[Si](C(C)C)(C(C)C)OC2"
obs_value = 1.53

[[record]]
smiles_data = "CC1=C([C@H](O)CCc2ccccc2)[C@H](CO)[C@@H]2C(=O)N(C)C(=O)[C@@H]2C1"
obs_value = -0.528

[[record]]
smiles_data = "COC(=O)c1cn(C[C@@H](Cc2ccccc2)NC(=O)N[C@H](CO)CCc2oc(C(C)=O)c(C(=O)OC)c2C(=O)OC)nn1"
obs_value = -0.043

[[record]]
smiles_data = "COc1ccccc1CN1C(=O)c2ccccc2[C@](Cc2ccccc2I)(C(=O)NCC(F)(F)F)[C@@H]1c1ccc(CO)cc1"
obs_value = -0.0597


---

# target desc: Concanavalin-A (Canavalia ensiformis) (UniProt P02866)
# Sequence (P02866 whole entry, looked up): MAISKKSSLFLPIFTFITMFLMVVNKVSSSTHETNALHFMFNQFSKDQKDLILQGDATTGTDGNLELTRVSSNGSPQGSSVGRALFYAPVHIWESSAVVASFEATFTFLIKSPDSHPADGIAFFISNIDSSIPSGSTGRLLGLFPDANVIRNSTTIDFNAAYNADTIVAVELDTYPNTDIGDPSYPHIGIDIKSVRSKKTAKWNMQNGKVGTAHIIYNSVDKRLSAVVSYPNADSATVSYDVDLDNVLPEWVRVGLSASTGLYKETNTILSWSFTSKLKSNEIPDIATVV
# assay protocol: ConA small-molecule binders, primary screen, artefact control for SMM control protein annotation, biochemical, small-molecule microarray, Alexa647 label, 635 nm (AID 1127);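 further: z combines 667 nm emission intensity with signal-to-noise across three replicate slides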
# experimental setup: ConA-A647 binding fluorescence, higher = more signal
Decision: composite z-score compared against 1; not below it gives condition met, below it gives condition not met.

[[record]]
compound = "CCOC(=O)C[C@H]1[C@H](OC(=O)Cc2ccc3c(c2)OCO3)[C@@H](NC(=O)Cc2ccc(OC)cc2)c2cc(OCCCO)ccc2N1C(=O)c1ccc2ccccc2n1"
group_label = "condition not met"

[[record]]
compound = "CCCCCCCCCCC(O)C1C=CC2C(=O)N(C)C(=O)C2N1NC(=O)OC(C)(C)C (stereo unspecified)"
group_label = "condition met"

[[record]]
compound = "C=C(COC)/C(=C/C[C@H](OC(=O)c1ccncc1)c1ccccc1OCCO)c1cnc2ccccc2c1"
group_label = "condition met"

[[record]]
compound = "O=C1O[C@H](c2ccccc2)[C@H](c2ccccc2)N2[C@H]1[C@@H](C(=O)Nc1nc3ccccc3s1)[C@]1(C(=O)Nc3ccc(C#CC4(O)CCCCCC4)cc31)[C@H]2c1ccccc1OCCO"
group_label = "condition met"

[[record]]
compound = "CC(C)(C)OC(=O)CC[C@@]1(C(=O)NCc2ccccc2)N=C(c2ccc(OCCCO)cc2)O[C@@H]1c1ccccc1N=[N+]=[N-]"
group_label = "condition met"

[[record]]
compound = "CO[C@]12C=C(Br)[C@@H](C[C@@H]1c1cccc(C)c1)[C@@]1(CO1)C2=O"
group_label = "condition not met"

[[record]]
compound = "COc1cccc(/C=C/C=O)c1"
group_label = "condition not met"

[[record]]
compound = "Cc1ccc(S[C@]2(C(=O)O)CC(=O)N(Cc3ccccc3Cl)[C@@H]2c2ccc(CO)cc2I)cc1"
group_label = "condition not met"

[[record]]
compound = "COCCOC(=O)N1C(=O)[C@@]2(c3cc(C#CCCO)ccc31)[C@H](C(=O)Nc1nc3ccccc3s1)[C@H]1C(=O)O[C@H](c3ccccc3)[C@H](c3ccccc3)N1[C@@H]2c1ccccc1OCCO"
group_label = "condition met"

[[record]]
compound = "C=CCC(OC(C)=O)[C@@H]1[C@@H](N(Cc2ccc(-c3cccc(C(F)(F)F)c3)o2)C(=O)c2ccc(C)cc2)c2cc(OCCCO)ccc2N1C(=O)c1ccc2ccccc2c1 (stereo partly specified)"
group_label = "condition not met"

[[record]]
compound = "CCOC(=O)c1ccc(NC(=O)O[C@H]2[C@H](OC(=O)Nc3ccc4c(c3)OCO4)[C@H](OC(=O)Nc3ccc4c(c3)OCO4)[C@@H](OC)O[C@@H]2CO)cc1"
group_label = "condition met"

[[record]]
compound = "CCOC(=O)C[C@H]1[C@H](OC(=O)Cc2ccc3c(c2)OCO3)[C@@H](NC(=O)CC(C)C)c2cc(OCCCO)ccc2N1C(=O)Cc1ccc(OC)cc1"
group_label = "condition not met"

[[record]]
compound = "C=CCC(OC(C)=O)[C@@H]1[C@@H](N(Cc2cccc3ccccc23)C(=O)Cc2ccc(F)cc2)c2cc(OCCCO)ccc2N1C(=O)c1ccc2ccccc2n1 (stereo partly specified)"
group_label = "condition not met"

[[record]]
compound = "C=C(/C(=C/C[C@H](OC(C)=O)c1cccc(OCCO)c1)c1cnc2ccccc2c1)C(C)C"
group_label = "condition not met"

[[record]]
compound = "CCCCN1CC=CC23O[C@@H]4/C=C\\CCC(C)OC(=O)C4[C@H]2C(=O)N(C(CO)C(C)C)[C@@H]3C1=O (stereo partly specified)"
group_label = "condition not met"

[[record]]
compound = "O=C1O[C@H](c2ccccc2)[C@H](c2ccccc2)N2[C@H]1[C@@H](C(=O)N1CCN(c3ncccn3)CC1)[C@]1(C(=O)Nc3ccc(C#CC4(O)CCCCCC4)cc31)[C@H]2c1ccc(OCCO)cc1"
group_label = "condition met"

[[record]]
compound = "CC(CO)N1C(=O)[C@@H]2[C@H]3C(=O)OCC=C[C@H]3OC23C=CCN(C(C)(C)C)C(=O)[C@@H]13 (stereo partly specified)"
group_label = "condition not met"

[[record]]
compound = "Cc1ccc(S[C@]2(C(=O)O)CC(=O)N(Cc3cc(C(F)(F)F)cc(C(F)(F)F)c3)[C@@H]2c2ccc(CO)cc2)cc1"
group_label = "condition not met"

[[record]]
compound = "C=C[C@@H](OC)[C@H](OC(=O)Nc1ccc(SC)cc1)c1ccc(O)c(F)c1"
group_label = "condition not met"

[[record]]
compound = "COCCOC(=O)N1C(=O)[C@@]2(c3cc(C#CC4=CCCCC4)ccc31)[C@H](C(N)=O)[C@H]1C(=O)O[C@H](c3ccccc3)[C@H](c3ccccc3)N1[C@@H]2c1ccccc1OCCO"
group_label = "condition met"

[[record]]
compound = "COC(=O)C(CC#Cc1ccc2c(c1)[C@]1(C(=O)N2)[C@H](c2ccccc2OCCO)N2[C@H](c3ccccc3)[C@H](c3ccccc3)OC(=O)[C@H]2[C@@H]1C(=O)NC[C@H](O)c1ccccc1)C(=O)OC"
group_label = "condition met"

[[record]]
compound = "C=CCC(OC(C)=O)[C@@H]1[C@@H](N(Cc2ccc(-c3cccc(C(F)(F)F)c3)o2)C(=O)c2ccc(-c3ccccc3)cc2)c2cc(OCCCO)ccc2N1C(=O)c1ccc2ccccc2n1 (stereo partly specified)"
group_label = "condition not met"

[[record]]
compound = "CC(C)(C)OC(=O)CC[C@]1(C(=O)NCc2ccccc2)N=C(c2ccc(OCCCO)cc2)O[C@H]1c1ccccc1CN=[N+]=[N-]"
group_label = "condition not met"

[[record]]
compound = "COc1ccc([Si](C)(C)[C@@H]2[C@@H](CC(=O)N3Cc4ccccc4C[C@H]3CO)O[C@]3(C(=O)N(Cc4cccc(N5C(=O)c6cccc7cccc5c67)c4)c4ccccc43)[C@H]2C)cc1"
group_label = "condition met"

[[record]]
compound = "CC(C)(C)OC(=O)CC[C@]1(C(=O)NCC(O)CO)N=C(c2ccc(OCCCO)cc2)O[C@H]1c1ccccc1 (stereo partly specified)"
group_label = "condition not met"

